- Measurement Description: Solubility of API in water
- Assay type: physicochemical
- Measurement Context: 25 °C
I'd appreciate it if you could supply solubility values for the items below.
Answers are plain numbers, in mg/mL.

molecular_string=O=c1ccc2ncc(=O)n3c2n1C[C@H]3CN1CCC(NCc2cc3c(cn2)OCCC3)CC1 readout_name=solubility endpoint_value=175

Switching to the query record.
What does the data say about its solubility? Entry: C[C@H]1CO[C@@H]2Cn3cc(C(=O)NCc4ccc(F)cc4F)c(=O)c(O)c3C(=O)N12
2.9
